Sourced from PubChem BioAssay (NCI)

TGI reference
- System: NCI-H23 lung
- TEST: NCI tumour cell line growth inhibition, 48 h
OUTCOME MEASURE: TGI

{"COMPOUND": "CCN(CC)CCn1c2c3ccccc3ccc2c2oc(=O)c3ccccc3c21", "TGT": "NCI-H23 lung", "OUTCOME MEASURE": "TGI", "RESULT": "> 100 µM"}
{"COMPOUND": "CN(C)c1ccc(/C=C2\\Oc3cc(O)ccc3C2=O)cc1", "TGT": "NCI-H23 lung", "OUTCOME MEASURE": "TGI", "RESULT": "> 100 µM"}
{"COMPOUND": "Cc1ccc(O)c(C2=NNC(c3cccc(Br)c3)C2)c1 (stereo not given)", "TGT": "NCI-H23 lung", "OUTCOME MEASURE": "TGI", "RESULT": "> 100 µM"}
{"COMPOUND": "CSC1SCC2C(=O)N(C)C3(CC3C)C(=O)OCC(NC(=O)c3nc4ccccc4cc3O)C(=O)NC(C)C(=O)N(C)C1C(=O)N(C)C1(CC1C)C(=O)OCC(NC(=O)c1nc3ccccc3cc1O)C(=O)NC(C)C(=O)N2C (stereo not given)", "TGT": "NCI-H23 lung", "OUTCOME MEASURE": "TGI", "RESULT": "< 0.0001 µM"}
{"COMPOUND": "O=C(NCCNCCO)N/N=C/c1ccc(Cl)cc1", "TGT": "NCI-H23 lung", "OUTCOME MEASURE": "TGI", "RESULT": "> 100 µM"}
{"COMPOUND": "O=c1cc(-c2ccccc2)[nH]c2cc(Cl)cc(Cl)c12", "TGT": "NCI-H23 lung", "OUTCOME MEASURE": "TGI", "RESULT": "> 100 µM"}
{"COMPOUND": "NC(N)=N/N=C(/c1nc2ccc([N+](=O)[O-])cc2[nH]c1=O)C(O)c1ccco1 (stereo not given)", "TGT": "NCI-H23 lung", "OUTCOME MEASURE": "TGI", "RESULT": "> 100 µM"}
{"COMPOUND": "O=C1[C@@H]2Cc3c([nH]c4ccccc34)C(C3CCCCC3)N2C(=O)[C@@H]2CCCN12 (stereo not given in full)", "TGT": "NCI-H23 lung", "OUTCOME MEASURE": "TGI", "RESULT": "> 100 µM"}
{"COMPOUND": "O=C(Nc1ccc(Cl)cc1)Nc1ccc(Cl)c(Cl)c1", "TGT": "NCI-H23 lung", "OUTCOME MEASURE": "TGI", "RESULT": "> 100 µM"}
{"COMPOUND": "CCN(CC)CCNc1c(OC)cc(C)c2sc3ccccc3c(=O)c12", "TGT": "NCI-H23 lung", "OUTCOME MEASURE": "TGI", "RESULT": "29 µM"}
{"COMPOUND": "COc1ccc(NC2Oc3cc4c(cc3C(c3cc(OC)c(O)c(OC)c3)C2C)OCO4)cc1 (stereo not given)", "TGT": "NCI-H23 lung", "OUTCOME MEASURE": "TGI", "RESULT": "> 100 µM"}
{"COMPOUND": "CC[N+](CCCCCCCCCC[N+](CC)(c1ccccn1)c1ccccn1)(c1ccccn1)c1ccccn1", "TGT": "NCI-H23 lung", "OUTCOME MEASURE": "TGI", "RESULT": "17.9 µM"}
{"COMPOUND": "NC(N)=N/N=C/c1nc2sccn2c1[N+](=O)[O-]", "TGT": "NCI-H23 lung", "OUTCOME MEASURE": "TGI", "RESULT": "36.7 µM"}
{"COMPOUND": "COc1cccc(-c2nc3sccn3c2-c2ccnc(NCCNC(=O)Nc3cccc(C(F)(F)F)c3)n2)c1", "TGT": "NCI-H23 lung", "OUTCOME MEASURE": "TGI", "RESULT": "76.9 µM"}
{"COMPOUND": "COC(=O)CCC/C=C\\C[C@H]1C=CC(=O)/C1=C/C[C@@H](O)CCc1cccc(C(F)(F)F)c1", "TGT": "NCI-H23 lung", "OUTCOME MEASURE": "TGI", "RESULT": "5.18 µM"}
{"COMPOUND": "CN(C)CCNc1nc2ccccc2c2c1c1c(n2Cc2ccccc2)-c2ccccc2C1=O", "TGT": "NCI-H23 lung", "OUTCOME MEASURE": "TGI", "RESULT": "39.7 µM"}
{"COMPOUND": "CCN(CC)c1ccc(N=Nc2ccc(-c3nc4cccnc4o3)cc2)cc1", "TGT": "NCI-H23 lung", "OUTCOME MEASURE": "TGI", "RESULT": "> 100 µM"}
{"COMPOUND": "CC(=O)Oc1cc(C)ccc1[C@]1(C)CC[C@H](C)/C1=C\\Br", "TGT": "NCI-H23 lung", "OUTCOME MEASURE": "TGI", "RESULT": "20.3 µM"}
{"COMPOUND": "COc1ccc(/C=C/c2cc(OC)c(OC)c(OC)c2)cc1NC(=O)/C=C/c1ccc(F)cc1", "TGT": "NCI-H23 lung", "OUTCOME MEASURE": "TGI", "RESULT": "> 100 µM"}
{"COMPOUND": "CSCCC(NC(=O)OC(C)(C)C)C(=O)NCCNc1ccc(NCCNC(=O)C(CCSC)NC(=O)OC(C)(C)C)c2c1C(=O)c1ccccc1C2=O (stereo not given)", "TGT": "NCI-H23 lung", "OUTCOME MEASURE": "TGI", "RESULT": "15.9 µM"}
{"COMPOUND": "c1ccc2c(c1)[I+]c1ccccc1-2", "TGT": "NCI-H23 lung", "OUTCOME MEASURE": "TGI", "RESULT": "> 50 µM"}
{"COMPOUND": "CC1(C)[C@@H]2C[C@H]1c1cnc(-c3ccccn3)cc1C2[C@@H]1c2cc(-c3ccccn3)ncc2[C@@H]2C[C@H]1C2(C)C (stereo not given in full)", "TGT": "NCI-H23 lung", "OUTCOME MEASURE": "TGI", "RESULT": "> 100 µM"}
{"COMPOUND": "S=C(Nc1ccc(-c2nc3ccccc3[nH]2)cc1)NC1CCCCC1", "TGT": "NCI-H23 lung", "OUTCOME MEASURE": "TGI", "RESULT": "68.3 µM"}
{"COMPOUND": "COC(OC)C(O)C1OC=CC1n1cnc2c(N)ncnc21 (stereo not given)", "TGT": "NCI-H23 lung", "OUTCOME MEASURE": "TGI", "RESULT": "> 100 µM"}
{"COMPOUND": "CC(C)(C)OC(=O)N1C(OP(=O)(Oc2ccccc2)Oc2ccccc2)=COc2cccnc21", "TGT": "NCI-H23 lung", "OUTCOME MEASURE": "TGI", "RESULT": "> 100 µM"}
{"COMPOUND": "COc1cc2ccnc3c2c(c1O)N(C)C=C3", "TGT": "NCI-H23 lung", "OUTCOME MEASURE": "TGI", "RESULT": "37.5 µM"}
{"COMPOUND": "CC(=O)N/C(=C\\c1ccc(/C=C(\\NC(C)=O)c2nc3ccc(Cl)cc3[nH]2)cc1)c1nc2ccccc2[nH]1", "TGT": "NCI-H23 lung", "OUTCOME MEASURE": "TGI", "RESULT": "> 100 µM"}
{"COMPOUND": "COc1cc(OC)c(/C=C/c2ccc3ccccc3[n+]2C)c(OC)c1", "TGT": "NCI-H23 lung", "OUTCOME MEASURE": "TGI", "RESULT": "12.2 µM"}
{"COMPOUND": "C=C1C[C@]23C[C@@]1(O)CC[C@H]2[C@@]12C=C[C@H](O)[C@@](C)(C(=O)O1)[C@H]2[C@@H]3C(=O)O", "TGT": "NCI-H23 lung", "OUTCOME MEASURE": "TGI", "RESULT": "> 100 µM"}
{"COMPOUND": "CCN(CC)CCCNc1ccc2nnn3c4ccc(O)cc4c(=O)c1c23", "TGT": "NCI-H23 lung", "OUTCOME MEASURE": "TGI", "RESULT": "23.5 µM"}
{"COMPOUND": "CC1(C)C(=O)N(c2ccccc2)C(=O)N1c1nc2ccccc2[nH]1", "TGT": "NCI-H23 lung", "OUTCOME MEASURE": "TGI", "RESULT": "> 100 µM"}
{"COMPOUND": "CC(=O)O/N=C/c1ncccc1CO", "TGT": "NCI-H23 lung", "OUTCOME MEASURE": "TGI", "RESULT": "> 100 µM"}
{"COMPOUND": "COC(=O)C(C)Sc1nc2cc(Cl)ccc2s1 (stereo not given)", "TGT": "NCI-H23 lung", "OUTCOME MEASURE": "TGI", "RESULT": "> 100 µM"}
{"COMPOUND": "COc1cc(/C=C/c2cc(C(F)(F)F)[nH]c(=O)n2)ccc1OCc1ccccc1F", "TGT": "NCI-H23 lung", "OUTCOME MEASURE": "TGI", "RESULT": "31.9 µM"}
{"COMPOUND": "CC[N+](CC)=c1ccc2nc3c(cc(N)c4ccccc43)oc-2c1", "TGT": "NCI-H23 lung", "OUTCOME MEASURE": "TGI", "RESULT": "0.358 µM"}
{"COMPOUND": "Nc1ccc(C(=O)N/C(=C\\C=C\\c2ccco2)c2nc3[nH]c(=S)[nH]c(=O)c3[nH]2)cc1", "TGT": "NCI-H23 lung", "OUTCOME MEASURE": "TGI", "RESULT": "> 100 µM"}
{"COMPOUND": "COc1cc(OC2OC(C)C(O)C(O)C2O)cc2oc(-c3ccc(O)cc3)c(CC=C(C)C)c(=O)c12 (stereo not given)", "TGT": "NCI-H23 lung", "OUTCOME MEASURE": "TGI", "RESULT": "47.4 µM"}
{"COMPOUND": "CC[N+](C)(CC)CCN1C(=O)c2ccccc2S1(=O)=O", "TGT": "NCI-H23 lung", "OUTCOME MEASURE": "TGI", "RESULT": "> 100 µM"}
{"COMPOUND": "COc1cc2c(cc1C)NC(=O)/C2=C\\c1cc(OC)c(OC)c(OC)c1", "TGT": "NCI-H23 lung", "OUTCOME MEASURE": "TGI", "RESULT": "> 100 µM"}
{"COMPOUND": "Cc1cc(S(=O)(=O)Nc2nc(N)nc(N3N=CCC3C)n2)c(S)cc1Cl (stereo not given)", "TGT": "NCI-H23 lung", "OUTCOME MEASURE": "TGI", "RESULT": "> 10 µM"}
